UniProtKB O75116 data, read-out IC50
Reported endpoint: IC50 (µM)

• COc1cnc(-c2ccc3cc(C(=O)N(C)CC(F)(F)F)[nH]c3c2)nc1Nc1ccc(-c2cn[nH]c2)cc1 [TDI01868] = 0.032
• O=C1c2cc(-c3ncc(F)c(Nc4ccc(-c5cn[nH]c5)cc4)n3)ccc2CN1CC1CC(F)(F)C1 [TDI01590] = 0.266
• CN1CCC[C@H]1C(=O)N1Cc2ccc(-c3nccc(Nc4ccc(-c5cn[nH]c5)cc4)n3)cc2C1 [TDI01968A] = 0.296

1. O=C(Oc1ccccc1)N1Cc2ccc(-c3nccc(Nc4ccc5[nH]ncc5c4)n3)cc2C1 [TDI01403]
2. O=C(OC1CC(F)(F)C1)N1Cc2ccc(-c3nccc(Nc4ccc(-c5cn[nH]c5)cc4)n3)cc2C1 [TDI01562]
Asked: Field: entry with larger IC50 (options 1 / 2 ). Bench note: the answer is the label of the chosen record.
Given back: 1

P. CC(C)(C)OC(=O)N1Cc2ccc(-c3nccc(Nc4ccc(-c5cn[nH]c5)cc4)n3)cc2C1 [TDI01557B]
Q. Cn1c(C(=O)N2CC(F)(F)C2)cc2ccc(-c3nc(Nc4ccc(-c5cn[nH]c5)cc4)c4sccc4n3)cc21 [TDI01508]
Asked: Field: entry with larger IC50 (options P / Q ). Bench note: the answer is the label of the chosen record.
Given back: Q

P. NC(=O)c1cnc(-c2ccc3c(c2)CN(C(=O)C2CC(F)(F)C2)C3)nc1Nc1ccc(-c2cn[nH]c2)cc1 [TDI01567]
Q. CN(C)C(=O)c1cc2ccc(-c3nc(Nc4ccc5[nH]ncc5c4)c4sccc4n3)cc2[nH]1 [TDI01406]
Asked: Could you determine which record has the numerically smaller IC50? Candidates: P and Q Bench note: the answer is the label of the chosen record.
Given back: P

---

target: ROCK2 (Homo sapiens, UniProt O75116); experiment: ROCK2 kinase IC50 assay (CISBIO HTRF KinEASE-STK S2 kit); format: biochemical; conditions: incubated at room temperature for 2 hours
pIC50: −log10 of the molar value.
Reported endpoint: pIC50

Please review the entries below; each comes with its answer.
* CC1COCCN1C(=O)c1cc2ccc(-c3nccc(Nc4ccc(-c5cn[nH]c5)cc4)n3)cc2[nH]1 (centres unmarked) | 6.69
* CN1CCc2nc(C(=O)N3Cc4ccc(-c5nccc(Nc6ccc(-c7cn[nH]c7)cc6)n5)cc4C3)sc2C1 | 7.28
* Cn1c(C(=O)N2CC(F)(F)C2)cc2ccc(-c3nc(Nc4ccc(-c5cn[nH]c5)cc4)c4cccn4n3)cc21 | 6.99
* CN(C)C(=O)N1Cc2ccc(-c3nc(Nc4ccc(-c5cn[nH]c5)cc4)c4occc4n3)cc2C1 | 6.73
* O=C(c1cc2ccc(-c3nccc(Nc4ccc(-c5cn[nH]c5)cc4)n3)cc2[nH]1)N1CC2C(C1)C2(F)F (centres unmarked) | 7.09

I. O=C(O)c1cnc(-c2ccc3c(c2)CN(C(=O)C2CC(F)(F)C2)C3)nc1Nc1ccc(-c2cn[nH]c2)cc1 [TDI01567C]
II. Cn1c(-n2ccnc2)cc2ccc(-c3nccc(Nc4ccc(-c5cn[nH]c5)cc4)n3)cc21 [TDI01876B]
Asked: Field: entry with larger pIC50 (options I / II ). Bench note: the answer is the label of the chosen record.
Given back: I
(I: 7.54, II: 6.62)
